Field: pIC50. Provide a value for each of the compounds that follow.
biological target: Menin-MLL (Homo sapiens); construct: His-Menin (M1-L615 end); purchased BIORTUS BP9210; test: Inhibitory activity against Menin-MLL binding (fluorescence polarization); conditions: fluorescence polarization; 150 nM His-Menin, 15 nM FITC-MLL; 25°C for 60 min; read-out: Menin-MLL IC50
Sequence (O00255 1-615 isoform O00255-1): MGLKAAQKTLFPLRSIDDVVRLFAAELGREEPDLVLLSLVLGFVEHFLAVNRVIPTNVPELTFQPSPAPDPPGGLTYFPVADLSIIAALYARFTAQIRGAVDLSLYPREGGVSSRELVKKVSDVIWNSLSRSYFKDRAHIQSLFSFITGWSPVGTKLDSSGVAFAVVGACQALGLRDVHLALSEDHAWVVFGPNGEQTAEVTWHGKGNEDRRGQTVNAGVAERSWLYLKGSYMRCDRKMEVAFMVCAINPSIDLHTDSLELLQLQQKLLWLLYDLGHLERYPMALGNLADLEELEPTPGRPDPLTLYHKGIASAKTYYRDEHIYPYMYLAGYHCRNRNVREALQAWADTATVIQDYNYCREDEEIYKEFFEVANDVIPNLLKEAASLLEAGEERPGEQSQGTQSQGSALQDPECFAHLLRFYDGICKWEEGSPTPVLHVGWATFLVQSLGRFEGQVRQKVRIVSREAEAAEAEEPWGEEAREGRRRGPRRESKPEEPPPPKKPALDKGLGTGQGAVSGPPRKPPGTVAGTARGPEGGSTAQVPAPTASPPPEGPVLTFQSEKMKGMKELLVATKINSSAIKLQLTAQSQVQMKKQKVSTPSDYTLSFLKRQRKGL
One number for each entry, as −log10 of the molar value.

Below are worked cases with known answers.
Cc1nc(F)c2c(-c3ccc(F)cc3C(=O)N3[C@H](C)COC[C@H]3C)cc(CC3CN(CC4CCOCC4)C3)cn12	7.24
CCC(=O)N1CCC([C@H](C)N2CC(c3cc(-c4ccc(F)cc4C(=O)N4CCOC[C@H]4C)c4cnc(C)n4c3)C2)CC1	7.41

Next, consider the following compound.
pIC50 reading for Cc1cncc2c(-c3ccc(F)cc3C(=O)N3CCOC[C@H]3C)cc(CC3CN(CC4CCN(C(=O)C5CC5)CC4)C3)n12 : 8.46
